ASSAY DETAILS: Terminal elimination half life in orally dosed monkey
Type: ADME, organism-based, Macaca mulatta
EXPERIMENTAL SETUP: rhesus monkey, in vivo, po; read-out: beta t1/2 (converted)
OUTCOME MEASURE: half-life

1) Nc1ncc2ncn([C@H]3CO[C@@H](CO)O3)c2n1 : 30 min

###

ASSAY DETAILS: Oral bioavailability in mouse
Type: ADME, organism-based
EXPERIMENTAL SETUP: in vivo
OUTCOME MEASURE: bioavailability (%)

1) Nc1nc2c(ncn2[C@H]2CO[C@@H](CO)O2)c(=O)[nH]1 : 114

###

ASSAY DETAILS: Terminal elimination half life in woodchuck hepatitis virus-negative woodchucks at 33.3 mg/kg, iv administered as single dose
Assay type: ADME, organism-based
Design: dose 33.3 mg/kg, route intravenous
EXPERIMENTAL SETUP: marmota monax, in vivo, read-out: beta t1/2 (converted)
OUTCOME MEASURE: half-life (h)

1) Nc1ncc2ncn([C@H]3CO[C@@H](CO)O3)c2n1 : 1.7

###

Tested on: Woodchuck hepatitis virus
ASSAY DETAILS: Antiviral activity against woodchuck hepatitis virus infected woodchucks assessed as log reduction of serum viral DNA per ml of serum after 4 weeks
Assay type: functional
OUTCOME MEASURE: Activity

1. Nc1ncnc2c1ncn2[C@H]1C[C@H](O)[C@@H](CO)O1 : 1.5
2. CCCCCCCCCCCCCCCCOCCCOP(=O)(O)OCCOCn1cnc2c(=O)[nH]c(N)nc21 : 1.4
3. CC(C)OC(=O)OCOP(=O)(CO[C@H](C)Cn1cnc2c(N)ncnc21)OCOC(=O)OC(C)C.O=C(O)/C=C/C(=O)O [TENOFOVIR DISOPROXIL FUMARATE] : 1.5
4. Nc1nc(=O)n([C@@H]2CS[C@H](CO)O2)cc1F : 4.9

###

System: Marmota monax
ASSAY DETAILS: Cmax in woodchuck hepatitis virus-negative woodchucks assessed as 9-(beta-D-1,3-dioxolan-4-yl)guanine at 33.3 mg/kg iv followed by after 4 weeks washout period administered 33.3 mg/kg, po
Type: ADME, organism-based
EXPERIMENTAL SETUP: in vivo, 672 h
OUTCOME MEASURE: Cmax (µM)

1) Nc1nc2c(ncn2[C@H]2CO[C@@H](CO)O2)c(=O)[nH]1 : 20.3

###

ASSAY DETAILS: AUC (0 to infinity) in woodchuck hepatitis virus-negative woodchucks at 33.3 mg/kg, iv administered as single dose
Assay type: ADME, organism-based
Parameters: time infinity, dose 33.3 mg/kg, route intravenous
EXPERIMENTAL SETUP: marmota monax, plasma
OUTCOME MEASURE: AUC(0-inf) (µM·h)

1. Nc1ncc2ncn([C@H]3CO[C@@H](CO)O3)c2n1 : 203

###

Tested on: Marmota monax
ASSAY DETAILS: Cmax in woodchuck hepatitis virus-negative woodchucks assessed as 9-(beta-D-1,3-dioxolan-4-yl)guanine at 33.3 mg/kg, iv administered as single dose
Format: ADME, organism-based
Parameters: dose 33.3 mg/kg, route intravenous
EXPERIMENTAL SETUP: in vivo
OUTCOME MEASURE: Cmax (µM)

1. Nc1nc2c(ncn2[C@H]2CO[C@@H](CO)O2)c(=O)[nH]1 : 24.6

###

ASSAY DETAILS: Terminal elimination half life in woodchuck hepatitis virus-negative woodchucks at 33.3 mg/kg, iv administered as single dose followed by dose of 33.3 mg/kg, po after 4 weeks washout period
Format: ADME, organism-based
EXPERIMENTAL SETUP: marmota monax, in vivo, read-out: beta t1/2 (converted)
OUTCOME MEASURE: half-life (min)

1) Nc1ncc2ncn([C@H]3CO[C@@H](CO)O3)c2n1 : 180
